Ref: patent US7109193B2

Recorded inhibition at 0.1 µM, one value per entry.
- Target System: human vasopressin V1a receptor subtype (Homo sapiens)
- Construct: host or cells: CHO cells (pZeoSV vector for the Thibonnier line)
- Sequence (P37288 whole entry): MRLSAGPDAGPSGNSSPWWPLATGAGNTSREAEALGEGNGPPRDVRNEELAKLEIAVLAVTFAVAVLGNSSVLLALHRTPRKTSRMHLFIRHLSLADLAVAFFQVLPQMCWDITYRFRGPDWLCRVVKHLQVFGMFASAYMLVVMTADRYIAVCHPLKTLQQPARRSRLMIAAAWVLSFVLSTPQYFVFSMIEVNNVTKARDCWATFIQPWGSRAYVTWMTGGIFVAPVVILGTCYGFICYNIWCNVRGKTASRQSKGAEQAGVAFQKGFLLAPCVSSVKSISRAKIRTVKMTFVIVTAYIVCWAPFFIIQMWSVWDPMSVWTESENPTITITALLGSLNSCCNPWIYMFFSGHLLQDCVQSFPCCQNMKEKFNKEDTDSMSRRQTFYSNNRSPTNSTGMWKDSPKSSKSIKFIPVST
- Method: Vasopressin binding in Chinese Hamster Ovary cell membranes expressing human vasopressin V1a subtype receptors
- Condition Parameters: 100 nM, CHO cell membranes, [3H]Manning ligand, values without parentheses
- Method: Vasopressin Binding in Chinese Hamster Ovary Cell Membranes Expressing Human Vasopressin V1a Subtype Receptors The trypsin is removed by aspiration and the cells dislodged by tapping. Cell Culture medium (e.g. 30 mL for 1:30 split) is immediately added and mixed well to inactivate trypsin. […] The filter paper is thoroughly dried (7–12 min. in a microwave oven) and impregnated with MeltiLex B/H melt-on scintillation wax sheets and the radioactivity counted in a betaplate scintillation counter. […]
Return type: number; implicit unit %.

Reference set (2 entries):
**Q:** Given the compound COc1cccc(-c2ccc(C(=O)N3Cc4ccc(C(=O)N(C)C5CCN(C)C5)n4Cc4ccccc43)cc2C)c1 (centres unmarked) , what is its reported inhibition at 0.1 µM?
**A:** 53

**Q:** Given the compound Cc1ccccc1-c1ccc(C(=O)N2Cc3ccc(C(=O)N4CCN(C(C)C)CC4)n3Cc3ccccc32)cc1C , what is its reported inhibition at 0.1 µM?
**A:** 31

***
**Q:** Given the compound COc1cc(C(=O)N2Cc3ccc(C(=O)N(C)CCN(C)C)n3Cc3ccccc32)ccc1-c1ccccc1C , what is its reported inhibition at 0.1 µM?
**A:** 78

**Q:** Given the compound Cc1cc(C(=O)N2Cc3ccc(C(=O)N(C)C4CCN(C)C4)n3Cc3ccccc32)ccc1-c1ccccc1C(F)(F)F (centres unmarked) , what is its reported inhibition at 0.1 µM?
**A:** 23

**Q:** Given the compound Cc1cc(C(=O)N2Cc3ccc(C(=O)N4CCN(CCCN(C)C)CC4)n3Cc3ccccc32)ccc1-c1ccccc1C(F)(F)F , what is its reported inhibition at 0.1 µM?
**A:** 14

====

- Target System: human oxytocin receptor (Homo sapiens, UniProt P30559)
- Construct: host or cells: CHO cells (pcDNA3.1 vector)
- Sequence (P30559 whole entry): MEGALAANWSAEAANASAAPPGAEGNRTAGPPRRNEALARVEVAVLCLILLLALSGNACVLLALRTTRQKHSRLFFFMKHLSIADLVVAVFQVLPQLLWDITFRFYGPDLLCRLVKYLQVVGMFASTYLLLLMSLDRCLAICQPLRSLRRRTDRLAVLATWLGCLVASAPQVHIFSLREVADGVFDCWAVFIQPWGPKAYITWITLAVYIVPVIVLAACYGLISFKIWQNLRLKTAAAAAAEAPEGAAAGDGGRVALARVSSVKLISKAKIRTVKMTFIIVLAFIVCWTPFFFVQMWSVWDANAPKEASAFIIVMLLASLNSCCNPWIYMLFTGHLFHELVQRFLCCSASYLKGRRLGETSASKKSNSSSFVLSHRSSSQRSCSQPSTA
- Method: Oxytocin binding in Chinese Hamster Ovary cell membranes expressing human oxytocin receptors
- Condition Parameters: 100 nM, CHO cell membranes, [3H]oxytocin, values without parentheses, read-out: OT % inhibition @ 100% nM
Categorized via inhibition at 0.1 µM: lower band (below 60%), central band (60% to below 80%), upper band (80% or more)

Completed entries (count: 5):
**Q:** Which inhibition at 0.1 µM band matches COc1cc(C(=O)N2Cc3ccc(C(=O)N(C)CCN(C)C)n3Cc3ccccc32)ccc1-n1c(C)ccc1C [Example 309] ?
**A:** central band

**Q:** Which inhibition at 0.1 µM band matches COc1cccc(-c2ccc(C(=O)N3Cc4ccc(C(=O)N5CCC(N6CCCCC6)CC5)n4Cc4ccccc43)cc2C)c1 [Example 114] ?
**A:** central band

**Q:** Which inhibition at 0.1 µM band matches COc1ccccc1-c1ccc(C(=O)N2Cc3ccc(C(=O)N4CCN(CCN(C)C)CC4)n3Cc3ccccc32)cc1OC [Example 204] ?
**A:** central band

**Q:** Which inhibition at 0.1 µM band matches COc1cc(C(=O)N2Cc3ccc(C(=O)NCCCN(C)C)n3Cc3ccccc32)ccc1-c1ccccc1C [Example 77] ?
**A:** central band

**Q:** Which inhibition at 0.1 µM band matches Cc1cc(C(=O)N2Cc3cccn3Cc3ccccc32)cc(C)c1-n1c(C)ccc1C [Example 30] ?
**A:** lower band

***
**Q:** Which inhibition at 0.1 µM band matches COc1cc(C(=O)N2Cc3ccc(C(=O)N4CCC(N5CCCCC5)CC4)n3Cc3ccccc32)ccc1-c1cccc2ccccc12 [Example 118] ?
**A:** lower band

**Q:** Which inhibition at 0.1 µM band matches Cc1cc(C(=O)N2Cc3cccn3Cc3ccccc32)ccc1-c1ccncc1 [Example 31] ?
**A:** central band

**Q:** Which inhibition at 0.1 µM band matches COc1cc(C(=O)N2Cc3ccc(C(=O)N4CCN(C(C)C)CC4)n3Cc3ccccc32)ccc1-n1c(C)ccc1C [Example 319] ?
**A:** lower band

**Q:** Which inhibition at 0.1 µM band matches Cc1ccccc1-c1ccc(C(=O)N2Cc3ccc(C(=O)N4CCC(N5CCCC5)CC4)n3Cc3ccccc32)cc1C [Example 138] ?
**A:** upper band
